# tested.system: T1, 4-1BB human (human 4-1BB ECD-TEV-IgG1 hinge-CH2-CH3-10x His) (human)
# T1 construct: 4-1BB residues 24-186 fused to TEV site, IgG1 Fc and His tag; the entry is the whole fusion; also called soluble human 4-1BB-Fc
# T1 sequence (chain, as listed by the source limits assumed): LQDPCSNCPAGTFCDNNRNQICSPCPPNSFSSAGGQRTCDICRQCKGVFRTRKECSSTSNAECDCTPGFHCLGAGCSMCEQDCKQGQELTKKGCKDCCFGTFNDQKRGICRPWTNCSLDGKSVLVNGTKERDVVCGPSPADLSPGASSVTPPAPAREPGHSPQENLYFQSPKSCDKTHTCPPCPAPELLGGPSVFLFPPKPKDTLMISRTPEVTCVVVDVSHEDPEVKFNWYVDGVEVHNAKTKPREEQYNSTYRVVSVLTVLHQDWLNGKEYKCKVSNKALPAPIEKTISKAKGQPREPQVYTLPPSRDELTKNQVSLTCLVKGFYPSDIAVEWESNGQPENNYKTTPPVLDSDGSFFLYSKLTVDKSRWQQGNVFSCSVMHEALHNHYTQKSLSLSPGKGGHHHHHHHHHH
# assay.details: ELISA, coated 4-1BB-Fc

>  <binder>
v20022 (antibody, human IgG1, kappa, L234A L235A, V domains shown, Mouse-human chimera; also called 1C8; 1C8 mouse-human parental chimera) VH: QVQLKESGPGLVAPSQSLSITCTVSGFSLTTYAISWVRQPPGKGLEWLGIIWPGGGTNYNSALKSRLSISKDNSRSQVFLKMNSLQTDDTARYYCARGAGTWYFDVWGAGTTVTVSS VL: DIQMTQSTSSLSASVGDRVTISCSASQGISNYLNWYQQKPDGTVKLLIYYTSSLHSGVPSRFSGSGSGTDYSLTISNLEPEDIATYYCQQYSKFPWTFGGGTKLEIKR

>  <binding result>
binds

$$$$
>  <binder>
v20023 (antibody, human IgG1, kappa, L234A L235A, V domains shown, Mouse-human chimera; also called 1G1; 1G1 mouse-human parental chimera) VH: EVQLVESGGGLVKPGGSRKLSCAASGFTFSEFGMHWVRQAPDKGLKWVAYISSGGSTIYYADTVKGRFTISRDNAKNTLFLQMTSLRSEDTAMYYCARDWVDYWGQGTTLTVSS VL: NIVMTQSPKSMSMSVGERVTLSCKASENVGSYVSWYQQKPEKSPKLLIYGASNRYTGVPDRFTGSGSATDFTLTISSVQAEDLADYHCGQSYSYPLTFGAGTKLELKR

>  <binding result>
binds

$$$$

Source listed as patent US20230052369A1.
